System: Watermelon anthracnose
Assay: In vitro fungicidal activity, PDA colony diameter
Assay type: cell-based
Conditions: 50 mg/kg, inhibition of colony diameter; read-out: Fungicidal activity (%) Watermelon anthracnose
Assign inhibition at 50 mg/kg to each entry below.
Value and unit, in that order.

CCCS(=O)(=O)N(N1CC(C)=NNC1=O)S(=O)(=O)CCC [Ib-3]    25%

# batch size: 4; output inhibition at 50 mg/kg per entry
1. CC1=NNC(=O)N(NS(=O)(=O)c2ccc(Cl)cc2)C1 [Ia-21]
2. CC1=NNC(=O)N(NS(=O)(=O)c2ccc(I)cc2)C1 [Ia-23]
3. CC1=NNC(=O)N(NS(=O)(=O)c2c(C)cc(C)cc2C)C1 [Ia-13]
4. COc1ccc(S(=O)(=O)NN2CC(C)=NNC2=O)cc1 [Ia-14]

// result
["24.6%", "68.4%", "24.6%", "26.2%"]

====

System: Armyworms
Assay: Test of insecticidal activity against armyworms (leaf immersion)
Conditions: 600 mg/kg, 3-4 days
Decide using Mortalities (%) Armyworms alone. Strictly below 20%: Criterion met. Equal to or above 20%: Criterion not met.

CC(=O)Nc1ccc(S(=O)(=O)NN2CC(C)=NNC2=O)cc1    Criterion met
CC1=NNC(=O)N(N(S(C)(=O)=O)S(C)(=O)=O)C1    Criterion met
CC1=NNC(=O)N(NS(=O)(=O)c2ccc(OC(F)(F)F)cc2)C1    Criterion met

// query Just wondering, is Mortalities (%) Armyworms of CCCS(=O)(=O)NN1CC(C)=NNC1=O below 20%?
// result Criterion not met

// query Just wondering, is Mortalities (%) Armyworms of CC1=NNC(=O)N(NS(=O)(=O)c2cn(C)cn2)C1 below 20%?
// result Criterion met

// query Just wondering, is Mortalities (%) Armyworms of CC1=NNC(=O)N(NS(=O)(=O)c2ccc(F)cc2F)C1 below 20%?
// result Criterion not met

// query Just wondering, is Mortalities (%) Armyworms of CC1=NNC(=O)N(NS(=O)(=O)c2c(C)cc(C)cc2C)C1 below 20%?
// result Criterion not met

// query Just wondering, is Mortalities (%) Armyworms of CC1=NNC(=O)N(NS(=O)(=O)c2cn(C)c(C)n2)C1 below 20%?
// result Criterion met

====

Test system: Watermelon anthracnose
Assay: In vitro fungicidal activity, PDA colony diameter
Format: cell-based
Details: 50 mg/kg, inhibition of colony diameter; read-out: Fungicidal activity (%) Watermelon anthracnose
observed property: inhibition at 50 mg/kg (%)
Numbers only, in %.

Worked examples follow.
CC1=NNC(=O)N(NS(=O)(=O)c2ccc(C(F)(F)F)cc2)C1    34.4
CC(=O)Nc1ccc(S(=O)(=O)NN2CC(C)=NNC2=O)cc1    12.5
CC1=NNC(=O)N(NS(=O)(=O)c2ccc(C)cc2)C1    33.3

# batch size: 8; output inhibition at 50 mg/kg per entry
1. CCCCS(=O)(=O)NN1CC(C)=NNC1=O
2. CC1=NNC(=O)N(NS(=O)(=O)c2ccsc2)C1
3. CC1=NNC(=O)N(NS(=O)(=O)c2ccc(F)c(F)c2F)C1
4. CC1=NNC(=O)N(NS(=O)(=O)c2ccc(C(C)(C)C)cc2)C1
5. CC1=NNC(=O)N(N(S(=O)(=O)c2ccc(C)cc2)S(=O)(=O)c2ccc(C)cc2)C1
6. CC1=NNC(=O)N(NS(=O)(=O)c2ccc(C#N)cc2)C1
7. CC1=NNC(=O)N(N(S(C)(=O)=O)S(C)(=O)=O)C1
8. CC1=NNC(=O)N(NS(=O)(=O)c2c(C)noc2C)C1

// result
1. 25
2. 18.8
3. 13.1
4. 14.7
5. 29.2
6. 24.6
7. 20.8
8. 25

# batch size: 8; output inhibition at 50 mg/kg per entry
1. CC1=NNC(=O)N(NS(=O)(=O)c2ccc(F)cc2F)C1
2. CC1=NNC(=O)N(NS(=O)(=O)c2ccc(OC(F)(F)F)cc2)C1
3. N#Cc1c(Cl)c(Cl)c(Cl)c(C#N)c1Cl [Chlorothalonil, reference compound]
4. CC1=NNC(=O)N(NS(C)(=O)=O)C1
5. CC1=NNC(=O)N(N(S(=O)(=O)c2cccnc2)S(=O)(=O)c2cccnc2)C1
6. COC(=O)Nc1nc2ccccc2[nH]1 [Carbendazim, reference compound]
7. CC1=NNC(=O)N(N(S(=O)(=O)c2ccccc2)S(=O)(=O)c2ccccc2)C1
8. CC1=NNC(=O)N(NS(=O)(=O)c2ccccc2)C1

// result
16.4
16.4
91.3
20.8
3.1
100
20.8
12.5

# batch size: 2; output inhibition at 50 mg/kg per entry
1. CC1=NNC(=O)N(/N=C/c2cccnc2)C1 [Pymetrozine, reference compound]
2. CCS(=O)(=O)N(N1CC(C)=NNC1=O)S(=O)(=O)CC

// result
1: 16.7; 2: 12.5
